target: GNAS; details: ASO; also: test concentration or dose not given here
These antisense oligonucleotides have a phosphorothioate backbone; sugars and methylation of C are not fully specified.
parameter: remaining target (mRNA or protein) (fraction of control)

Examples from the recorded data:
{"sequence-code": "TTTCATTTGTTTCTTTTATT", "val": "≥ 1"}
{"sequence-code": "ATGTTCTCAGTGTCCACAGC", "val": 0.58}
{"sequence-code": "CTTTTATTTCATTTTATTTG", "val": 0.97}

For each entry beneath this line, provide reported remaining target (mRNA or protein) (fraction of control).
1. GTTTGCTGCTGCTGTTTTAT
2. TTCATTTTATTTGTTTGCTG
3. GTGAGAGGGAACTTTTGTGG

[0.53, 0.79, 0.72]

For each entry beneath this line, provide reported remaining target (mRNA or protein) (fraction of control).
1. ATATTTATTTCATTTGTTTC
2. TGGTTGCCTTCTCACTGTCT
3. AGGTGAAATGAGGGTAGCAG

1: 0.61; 2: 0.62; 3: ≥ 1

# credit: the OligoGym collection
